The variants listed here are annotated with their percent of parent.
B1: TMEM59 peptide (residues 268–280), wild type [modified: long spacer (Tds) at the N-terminal end, used for immobilisation; long spacer (Tds) at the N-terminal end, used for immobilisation] [not stated] / GST-HA-ATG16L1(231–607) … (parent)
chain 1: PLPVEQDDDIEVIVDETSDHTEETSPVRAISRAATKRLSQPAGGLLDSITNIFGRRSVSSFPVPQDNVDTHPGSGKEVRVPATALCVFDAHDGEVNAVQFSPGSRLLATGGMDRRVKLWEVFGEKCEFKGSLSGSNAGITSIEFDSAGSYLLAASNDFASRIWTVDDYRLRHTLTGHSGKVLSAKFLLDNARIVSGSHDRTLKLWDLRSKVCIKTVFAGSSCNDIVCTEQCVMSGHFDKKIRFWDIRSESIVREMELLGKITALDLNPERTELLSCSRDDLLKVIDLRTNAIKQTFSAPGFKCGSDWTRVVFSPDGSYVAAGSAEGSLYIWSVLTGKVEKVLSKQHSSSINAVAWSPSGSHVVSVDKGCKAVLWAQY
chain 2: YVPSEKLSIYGDL

Variants of: B1
Assay: peptide microarray
Conditions: with GST-HA-ATG16L1(231–607) [human]; ligand 800, 600, 400 nM; parent: 100
recorded.metric: percent of parent (% WT)

[[record]]
change = "chain 2 V2A"
reported_result = 50

[[record]]
change = "chain 2 K6Q"
reported_result = 4

[[record]]
change = "chain 2 D12F"
reported_result = 138

[[record]]
change = "chain 2 K6G"
reported_result = 6

[[record]]
change = "chain 2 E5H"
reported_result = 183

[[record]]
change = "chain 2 E5D"
reported_result = 126

[[record]]
change = "chain 2 G11P"
reported_result = 155

[[record]]
change = "chain 2 E5R"
reported_result = 165

[[record]]
change = "chain 2 L7S"
reported_result = 58

[[record]]
change = "chain 2 E5T"
reported_result = 179

[[record]]
change = "chain 2 Y1E"
reported_result = 13

